The reported numbers originate from patent US20240398805A1.

The following are reported GI50 results, target or system A431 cells.

Examples with their reported GI50 follow.
[
  {
    "Compound": "C=CC(=O)N1CCC(Nc2cc3c(Nc4ccc(Oc5ccnc(N6CC(CC#N)C6)c5)cc4F)ncnc3cc2OC)CC1",
    "GI50": "0.6 to 1 µM"
  },
  {
    "Compound": "C=CC(=O)N1CCC(Nc2cc3c(Nc4ccc(Oc5ccnc(-c6nc(C)no6)c5)cc4F)ncnc3cc2OC)CC1",
    "GI50": "0.3 to 0.6 µM"
  }
]

# return GI50 of `C=CC(=O)N1CCC(Oc2cc3c(Nc4ccc(Oc5ccnc(N6CC[C@@H](N(C)C)C6)c5)cc4F)ncnc3cc2OC)CC1` (system: A431 cells)
≥ 1 µM

# return GI50 of `C=CC(=O)N1CCC(Nc2cc3c(Nc4ccc(Oc5ccnc(-c6nc(C)cs6)c5)cc4F)ncnc3cc2OC)CC1` (system: A431 cells)
0.1 to 0.3 µM

# return GI50 of `C=CC(=O)N1CCC(Nc2cc3c(Nc4ccc(Oc5ccnc(N6CC[C@H](F)C6)c5)cc4F)ncnc3cc2OC)CC1` (system: A431 cells)
0.1 to 0.3 µM

# return GI50 of `C=CC(=O)N1CCC(Nc2cc3c(Nc4ccc(Oc5ccnc(N6CC(N(C)C)C6)c5)cc4F)ncnc3cc2OC)CC1` (system: A431 cells)
≥ 1 µM

# return GI50 of `C=CC(=O)N1CCC(Nc2cc3c(Nc4ccc(Oc5ccnc(C(=O)NC)c5)cc4F)ncnc3cc2OC)CC1` (system: A431 cells)
0.1 to 0.3 µM

# return GI50 of `C=CC(=O)N1CCC(Nc2cc3c(Nc4ccc(Oc5ccn(-c6cnc(OC)nc6)n5)c(F)c4)ncnc3cc2OC)CC1` (system: A431 cells)
0.1 to 0.3 µM

# return GI50 of `C=CC(=O)N1CCC(Nc2cc3c(Nc4ccc(Oc5nc(-c6nnc(C(C)C)o6)cs5)cc4F)ncnc3cc2OC)CC1` (system: A431 cells)
0.3 to 0.6 µM

----------
# System: A431 cells
# Test method notes: Cell growth inhibition (CellTiter-Glo, 3 days) in A431
# Type: cell-based
# Test settings: Homo sapiens, A-431, 72 h, 3 days after administration
# GI50 per entry

[
  {
    "Chemical smiles": "C=CC(=O)N1CCC(Nc2cc3c(Nc4ccc(Oc5ccn(-c6cnc(C)c(C)c6)n5)cc4F)ncnc3cc2OC)CC1",
    "GI50": "0.03 to 0.06 µM"
  },
  {
    "Chemical smiles": "C=CC(=O)N1CCC(Nc2cc3c(Nc4ccc(Oc5ccnc(N6CCN(C(C)C)CC6)c5)cc4F)ncnc3cc2OC)CC1",
    "GI50": "≥ 1 µM"
  },
  {
    "Chemical smiles": "C=CC(=O)N1CCC(Nc2cc3c(Nc4ccc(Oc5ccnc(N6C[C@@H](F)[C@@H](OC)C6)c5)cc4F)ncnc3cc2OC)CC1",
    "GI50": "0.6 to 1 µM"
  },
  {
    "Chemical smiles": "C=CC(=O)N1CCC(Nc2cc3c(Nc4ccc(Oc5ncc(N6C[C@@H](C)O[C@@H](C)C6)cn5)cc4F)ncnc3cc2OC)CC1",
    "GI50": "0.1 to 0.3 µM"
  },
  {
    "Chemical smiles": "CC#CC(=O)N1CCC(Nc2cc3c(Nc4ccc(Oc5ccn(-c6cnc(C)c(F)c6)n5)cc4F)ncnc3cc2OC)CC1",
    "GI50": "≥ 1 µM"
  },
  {
    "Chemical smiles": "C=CC(=O)N1CC2(CC(Nc3cc4c(Nc5ccc(Oc6ccn(-c7cnc(OC)nc7)n6)cc5F)ncnc4cc3OC)C2)C1",
    "GI50": "≥ 1 µM"
  }
]

Note down GI50 recorded for `C=CC(=O)N1CCC(Nc2cc3c(Nc4ccc(Oc5ccnn5-c5cnc(OC)c(F)c5)cc4F)ncnc3cc2OC)CC1`
≥ 1 µM
